biological target: TLR9 (Homo sapiens); construct: lymphocytes, monocytes and dendritic cells that express TLR7, TLR8 and TLR9; endogenous in cells; host or cells: human PBMCs from healthy donors; assay: Human PBMC cell-based assay, TLR9 agonist ODN-2216 stimulation, cytokine (IL-6 and IFNα) readout; conditions: human PBMCs, ODN-2216 3 μM, 6 hours; Table 26; read-out: TLR-9 EC50
Sequence (Q9NR96 26-1032): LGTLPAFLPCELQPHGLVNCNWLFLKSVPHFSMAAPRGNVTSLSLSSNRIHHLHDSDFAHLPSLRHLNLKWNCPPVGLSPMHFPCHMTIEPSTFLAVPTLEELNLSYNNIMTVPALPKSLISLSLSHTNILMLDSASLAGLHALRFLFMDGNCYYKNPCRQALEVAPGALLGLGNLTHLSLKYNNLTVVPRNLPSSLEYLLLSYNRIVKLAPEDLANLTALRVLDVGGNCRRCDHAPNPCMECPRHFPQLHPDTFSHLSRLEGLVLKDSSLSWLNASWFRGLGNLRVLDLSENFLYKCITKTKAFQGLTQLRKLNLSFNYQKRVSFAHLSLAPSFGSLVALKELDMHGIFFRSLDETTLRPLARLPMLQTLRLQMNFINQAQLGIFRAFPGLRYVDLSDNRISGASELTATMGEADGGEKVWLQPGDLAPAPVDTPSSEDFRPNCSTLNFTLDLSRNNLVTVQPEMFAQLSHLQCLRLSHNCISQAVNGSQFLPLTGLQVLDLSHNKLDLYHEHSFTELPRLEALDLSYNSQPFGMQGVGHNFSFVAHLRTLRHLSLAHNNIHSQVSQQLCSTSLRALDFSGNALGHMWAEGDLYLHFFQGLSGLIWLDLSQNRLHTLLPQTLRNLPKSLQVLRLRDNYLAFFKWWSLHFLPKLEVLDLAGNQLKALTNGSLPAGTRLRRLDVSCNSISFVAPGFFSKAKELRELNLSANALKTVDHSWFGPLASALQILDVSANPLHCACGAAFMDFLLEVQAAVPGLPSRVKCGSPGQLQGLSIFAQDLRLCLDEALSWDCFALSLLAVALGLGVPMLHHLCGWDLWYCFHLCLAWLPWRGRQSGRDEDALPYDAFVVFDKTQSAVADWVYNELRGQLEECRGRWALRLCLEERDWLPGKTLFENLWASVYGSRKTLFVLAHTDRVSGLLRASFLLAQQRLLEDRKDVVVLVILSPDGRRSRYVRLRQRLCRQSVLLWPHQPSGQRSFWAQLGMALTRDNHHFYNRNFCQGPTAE
pEC50: −log10 of the molar value.
assay_readout: pEC50

Study these solved cases before continuing.
- molecule: "CNCC(=O)N1CCN(c2ccc(-c3ccc4c(C)c(-c5cc(C)nc(C)c5)[nH]c4c3)cn2)CC1 [Example 136]"
  assay_readout: "pEC50"
  assay_result: 7.34
- molecule: "CCc1c(-c2cc(C)nc(C)c2)[nH]c2cc(C3CCNCC3)ccc12 [Example 49]"
  assay_readout: "pEC50"
  assay_result: 6.45
- molecule: "CCc1c(-c2cc(OC)c3ncnn3c2)[nH]c2cc(-c3ccc(N4CCNCC4)nc3)ccc12 [Example 169]"
  assay_readout: "pEC50"
  assay_result: 6.30
- molecule: "Cc1cc(-c2[nH]c3cc(-c4ccc(N5CCN(C(=O)[C@@H]6COCCN6)CC5)nc4)ccc3c2C)cc(C)n1 [Example 110]"
  assay_readout: "pEC50"
  assay_result: 7.20

[1] Cc1cc(-c2[nH]c3cc(-c4cccc(C(=O)N5CC[C@@H](N)C5)c4)ccc3c2C)cc(C)n1 [Example 121]
[2] Cc1cc(-c2[nH]c3cc(-c4ccc(N5CCC(NCCO)CC5)nc4)ccc3c2C)cc(C)n1 [Example 131]
Challenge: Sort 1 and 2 by pEC50 descending and give the first. Response format: the label of the selected entry.
Response given: 2
